experiment: in vitro; conditions: erythrocyte
Where a SMILES comes first, the peptide text is derived from it.
Below, each entry is listed with its recorded HC50.

{"columns": ["Compound", "Readout Units", "HC50"],
 "data": [
  ["N=C(N)NCCC[C@H](NC(=O)[C@H](Cc1c[nH]c2ccccc12)NC(=O)[C@H](CCCNC(=N)N)NC(=O)[C@H](Cc1c[nH]c2ccccc12)NC(=O)[C@H](CCCNC(=N)N)NC(=O)[C@H](Cc1c[nH]c2ccccc12)NC(=O)[C@H](CCCNC(=N)N)NC(=O)[C@H](Cc1c[nH]c2ccccc12)NC(=O)[C@@H](N)CCCNC(=N)N)C(=O)N[C@@H](Cc1c[nH]c2ccccc12)C(N)=O", "µM", 76],
  ["N=C(N)NCCC[C@H](NC(=O)[C@H](Cc1c[nH]c2ccccc12)NC(=O)[C@H](CCCNC(=N)N)NC(=O)[C@H](Cc1c[nH]c2ccccc12)NC(=O)[C@H](CCCNC(=N)N)NC(=O)[C@H](Cc1c[nH]c2ccccc12)NC(=O)[C@@H](N)CCCNC(=N)N)C(=O)N[C@@H](Cc1c[nH]c2ccccc12)C(N)=O (H-RWRWRWRW-NH2)", "µM", 100],
  ["N=C(N)NCCC[C@H](NC(=O)[C@H](Cc1c[nH]c2ccccc12)NC(=O)[C@H](CCCNC(=N)N)NC(=O)[C@H](Cc1c[nH]c2ccccc12)NC(=O)[C@@H](N)CCCNC(=N)N)C(=O)N[C@@H](Cc1c[nH]c2ccccc12)C(N)=O (H-RWRWRW-NH2)", "µM", 210]
]}
